# Experimental System: hMITF-sl (Homo sapiens, UniProt O75030-10 1-309)
# Sequence (O75030 other isoform, or with tags, fused parts or gaps): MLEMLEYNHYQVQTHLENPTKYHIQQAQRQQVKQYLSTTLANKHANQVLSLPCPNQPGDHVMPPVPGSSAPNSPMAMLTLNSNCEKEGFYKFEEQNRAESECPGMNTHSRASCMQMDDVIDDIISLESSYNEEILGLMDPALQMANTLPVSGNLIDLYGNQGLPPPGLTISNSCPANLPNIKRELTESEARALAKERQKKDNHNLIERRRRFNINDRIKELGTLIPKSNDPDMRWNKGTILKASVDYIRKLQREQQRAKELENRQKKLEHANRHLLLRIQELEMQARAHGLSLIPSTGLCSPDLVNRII
# Procedure Summary: smFRET; 300 mM KCl; Single-molecule: 0.5 nM DNA, 10 mM Tris pH 7.4, 0.1 mM EDTA, 165 or 300 mM KCl, 1 mM MgCl2, 143 mM 2-ME, 0.01% Tween-20, 0.1 mg/mL BSA. EMSA: 10 mM Hepes pH 7.9, 50 mM NaCl, 5 mM MgCl2, 0.1 mM EDTA, 2 mM DTT, 5% ethylene glycol, 5% glycerol, BSA, 30 min on ice
# Condition Description: protein: recombinant; tags: none (His6-SUMO removed by ULP-1); unlabeled; chain copies: 2; label: Cy3B (5' positive strand); CF660R (5' negative strand); blunt
Quantity Measured: pKd
Worth noting: pKd values are minus log10 of concentrations stated in mol/L.

Dear colleague, I am looking for the recorded pKd of the following binder: M-box smFRET probe (dsDNA, 5' C6-amino linker on both strands) DNA 1: GAGATCATGTGTTGA DNA 2: TCAACACATGATCTC
8.80
